target: feline FcRn complex (FcRn-α subunit and β-microglobulin), biotin labeled (feline); test: SPR, pH 6
Property Name: Kd (nM)
One number for each entry, in nM.

Below, each entry is followed by its recorded Kd result.
feline IgG1a Q311W/D312P/L314K (antibody, part only; not given: Variable domains, not shown: another chain or arm of the molecule) constant: ASTTAPSVFPLAPSCGTTSGATVALACLVLGYFPEPVTVSWNSGALTSGVHTFPAVLQASGLYSLSSMVTVPSSRWLSDTFTCNVAHPPSNTKVDKTVRKTDHPPGPKPCDCPKCPPPEMLGGPSIFIFPPKPKDTLSISRTPEVTCLVVDLGPDDSDVQITWFVDNTQVYTAKTSPREEQFNSTYRVVSVLPILHWPWKKGKEFKCKVNSKSLPSPIERTISKAKGQPHEPQVYVLPPAQEELSRNKVSVTCLIKSFHPPDIAVEWEITGQPEPENNYRTTPPQLDSDGTYFVYSKLSVDRSHWQRGNTYTCSVSHEALHSHHTQKSLTQSPGK: 1230
feline IgG1a S434D (antibody, part only; not given: Variable domains, not shown: another chain or arm of the molecule) constant: ASTTAPSVFPLAPSCGTTSGATVALACLVLGYFPEPVTVSWNSGALTSGVHTFPAVLQASGLYSLSSMVTVPSSRWLSDTFTCNVAHPPSNTKVDKTVRKTDHPPGPKPCDCPKCPPPEMLGGPSIFIFPPKPKDTLSISRTPEVTCLVVDLGPDDSDVQITWFVDNTQVYTAKTSPREEQFNSTYRVVSVLPILHQDWLKGKEFKCKVNSKSLPSPIERTISKAKGQPHEPQVYVLPPAQEELSRNKVSVTCLIKSFHPPDIAVEWEITGQPEPENNYRTTPPQLDSDGTYFVYSKLSVDRSHWQRGNTYTCSVSHEALHDHHTQKSLTQSPGK: 5.66
feline IgG1a S252A (antibody, part only; not given: Variable domains, not shown: another chain or arm of the molecule; small tags and cut ends) constant: ASTTAPSVFPLAPSCGTTSGATVALACLVLGYFPEPVTVSWNSGALTSGVHTFPAVLQASGLYSLSSMVTVPSSRWLSDTFTCNVAHPPSNTKVDKTVRKTDHPPGPKPCDCPKCPPPEMLGGPSIFIFPPKPKDTLAISRTPEVTCLVVDLGPDDSDVQITWFVDNTQVYTAKTSPREEQFNSTYRVVSVLPILHQDWLKGKEFKCKVNSKSLPSPIERTISKAKGQPHEPQVYVLPPAQEELSRNKVSVTCLIKSFHPPDIAVEWEITGQPEPENNYRTTPPQLDSDGTYFVYSKLSVDRSHWQRGNTYTCSVSHEALHSHHTQKSLTQSPGK: 27.1

Field: next binder
So, feline IgG1a S252W (antibody, part only; not given: Variable domains, not shown: another chain or arm of the molecule) constant: ASTTAPSVFPLAPSCGTTSGATVALACLVLGYFPEPVTVSWNSGALTSGVHTFPAVLQASGLYSLSSMVTVPSSRWLSDTFTCNVAHPPSNTKVDKTVRKTDHPPGPKPCDCPKCPPPEMLGGPSIFIFPPKPKDTLWISRTPEVTCLVVDLGPDDSDVQITWFVDNTQVYTAKTSPREEQFNSTYRVVSVLPILHQDWLKGKEFKCKVNSKSLPSPIERTISKAKGQPHEPQVYVLPPAQEELSRNKVSVTCLIKSFHPPDIAVEWEITGQPEPENNYRTTPPQLDSDGTYFVYSKLSVDRSHWQRGNTYTCSVSHEALHSHHTQKSLTQSPGK ? Its Kd was 80.3
